# Procedure summary: Inhibition of RIPK1 in mouse L929sA cells transfected with human Fas assessed as inhibition in TNF-induced necroptosis pretreated for 24 hrs followed by TNF and zVAD.fmk addition measured after 3 hrs by Hoechst 33342/propidium iodide staining-based assay
Measure name: IC50

Cc1[nH]nc(Nc2nc(Sc3ccc(NC(=O)C4CC4)cc3)nc(N3CCCCC3)n2)c1C = > 3000 nM
Cc1cc(Nc2nc(Sc3ccc(NC(=O)C4CC4)cc3)nc(N3CCOCC3)n2)n[nH]1 = 1450 nM
Cc1[nH]nc(Nc2cc(N3CCN(C)CC3)nc(Sc3ccc(NC(=O)C4CCCCC4)cc3)n2)c1C = > 3000 nM
Cc1[nH]nc(Nc2nc(Sc3ccc(NC(=O)C4CC4)cc3)nc(N3CCN(C)CC3)n2)c1C = > 3000 nM
Cc1cc(Nc2nc(Nc3ccc(NC(=O)C4CCCCC4)cc3)nc(N3CCN(C)CC3)n2)n[nH]1 = > 3000 nM

Batch lookup, IC50 per entry.
1. CCN1CCN(c2cc(Nc3n[nH]c(C)c3C)nc(Sc3ccc(NC(=O)C4CC4)cc3)n2)CC1
2. Cc1cc(Nc2cc(N3CCCCC3)nc(Sc3ccc(NC(=O)C4CCCCC4)cc3)n2)n[nH]1
3. Cc1cc(Nc2cc(N3CCCCC3)nc(Sc3ccc(NC(=O)C4CC4)cc3)n2)n[nH]1

> 3000 nM
5040 nM
1740 nM

What does the record list as IC50 for Cc1cc(Nc2cc(N3CCOCC3)nc(Nc3ccc(NC(=O)C4CCCCC4)cc3)n2)n[nH]1 ?
1500 nM
